B1: Tudor domain-containing protein 3, residues 554 to 611; numbered along this chain, Q9H7E2 (parent)
chain: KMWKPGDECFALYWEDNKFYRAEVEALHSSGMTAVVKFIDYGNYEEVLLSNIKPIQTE

variants of: B1; test: abundance fitness (aPCA) (normalised: wild type 0, dead -1); higher = more abundant; growth selection in yeast, the domain comes from the species named; conditions: Homo sapiens
Returns the class for an entry based on its abundance fitness. Class ranges: range A = under -0.7, range B = from -0.7 up to -0.2, range C = -0.2 and over

// known answers, use as guide
{"columns": ["Alteration", "Label Value"],
 "data": [
  ["G31M", "range C"],
  ["G42P", "range C"],
  ["N17V", "range B"],
  ["I52P", "range B"],
  ["E25A", "range C"],
  ["D7I", "range A"],
  ["N17D", "range C"],
  ["G31P", "range B"],
  ["I39C", "range C"],
  ["E45M", "range B"]
]}

Sort `S50I` into one of the categories.
range C

Sort `L12W` into one of the categories.
range B

Sort `E45P` into one of the categories.
range A

Sort `Q56H` into one of the categories.
range C

Sort `V36N` into one of the categories.
range A

Sort `V24G` into one of the categories.
range A

Sort `E25Q` into one of the categories.
range C

Sort `T57W` into one of the categories.
range B

Sort `S30E` into one of the categories.
range C

Sort `G6W` into one of the categories.
range B

Sort `L48D` into one of the categories.
range C

Sort `R21Y` into one of the categories.
range B

Sort `C9D` into one of the categories.
range A

Sort `M32T` into one of the categories.
range C

Sort `W14Y` into one of the categories.
range C

Sort `L27P` into one of the categories.
range A

Sort `E15L` into one of the categories.
range C

Sort `K18E` into one of the categories.
range C

FYI, the data here is from the Human Domainome abundance scans (Beltran et al. 2025).
